Give Kd for every item shown.
# Test target: T1, mFz: Fz domain and C-terminal flanking sequence of mouse MuSK (D307 to T494) with C-terminal Avi- and … (mouse, UniProt Q61006 307-494, limits assumed, biotinylated in vitro using the BirA enzyme)
# T1 construct: also called mouse Fz; not shown: Avi- and His6-tags
# T1 sequence (looked up): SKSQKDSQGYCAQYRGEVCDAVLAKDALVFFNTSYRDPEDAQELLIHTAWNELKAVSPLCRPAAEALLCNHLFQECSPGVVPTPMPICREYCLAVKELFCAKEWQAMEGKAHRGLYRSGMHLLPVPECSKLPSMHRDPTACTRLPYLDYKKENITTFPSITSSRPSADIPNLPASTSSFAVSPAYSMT
# Method description: bead-binding assay, IgG format: biotinylated antigen on streptavidin beads, flow cytometry, 1:1 fit; average ± s.d., n=3
# unit: nM | format: bare number

Given hIgG1-X3 (antibody, V domains shown, human IgG1 Fc containing LALA mutations; also called X3 in human IgG1 format) VH: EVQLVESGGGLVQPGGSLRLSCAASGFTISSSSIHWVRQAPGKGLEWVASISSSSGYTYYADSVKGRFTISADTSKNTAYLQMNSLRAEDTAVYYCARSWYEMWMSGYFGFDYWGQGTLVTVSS VL: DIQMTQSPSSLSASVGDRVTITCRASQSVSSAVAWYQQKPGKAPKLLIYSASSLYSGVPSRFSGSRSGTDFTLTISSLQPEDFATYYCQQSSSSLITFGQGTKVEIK , state its recorded Kd. 0.07

Given mIgG2a-X17 (antibody, V domains shown, chimeric antibody of a human Fab (human CH1) and mouse IgG2a Fc with the LALAPG mutations; also called X17-mIgG2a-LALAPG; antibody X17) VH: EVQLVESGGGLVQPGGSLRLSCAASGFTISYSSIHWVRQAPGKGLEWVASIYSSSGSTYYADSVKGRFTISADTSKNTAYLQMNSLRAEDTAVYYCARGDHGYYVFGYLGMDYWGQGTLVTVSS VL: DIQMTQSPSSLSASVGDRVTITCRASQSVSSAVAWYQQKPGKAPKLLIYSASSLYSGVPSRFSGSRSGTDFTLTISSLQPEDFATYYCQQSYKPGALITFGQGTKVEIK , state its recorded Kd. 0.74

Given hIgG1-X2 (antibody, V domains shown, human IgG1 Fc containing LALA mutations; also called hIgG-X2; X2 in the human IgG1 format) VH: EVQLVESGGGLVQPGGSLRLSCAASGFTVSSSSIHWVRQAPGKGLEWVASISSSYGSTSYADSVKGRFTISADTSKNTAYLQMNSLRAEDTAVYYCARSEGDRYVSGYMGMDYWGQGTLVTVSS VL: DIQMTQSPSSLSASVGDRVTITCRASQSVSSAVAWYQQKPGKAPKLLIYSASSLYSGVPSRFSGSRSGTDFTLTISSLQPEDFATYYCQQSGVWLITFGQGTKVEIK , state its recorded Kd. 0.265

Given hIgG1-X17 (antibody, V domains shown, human IgG1 Fc containing LALA mutations; also called hIgG-X17; X17 in human IgG1 format) VH: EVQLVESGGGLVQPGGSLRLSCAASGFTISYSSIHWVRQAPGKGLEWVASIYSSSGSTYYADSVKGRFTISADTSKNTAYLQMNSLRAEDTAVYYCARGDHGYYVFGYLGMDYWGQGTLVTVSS VL: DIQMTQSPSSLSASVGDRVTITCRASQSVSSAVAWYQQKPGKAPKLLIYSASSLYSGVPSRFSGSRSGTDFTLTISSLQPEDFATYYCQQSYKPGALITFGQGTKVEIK , state its recorded Kd. 0.68
